Assign growth to each entry below.
# Test system: OVCAR-5 ovarian
# assay: NCI-60 one-dose screen, 48 h (100 = growth as untreated, 0 = no growth, -100 = all killed)
# condition.parameters: 10 µM unless noted
# Description: Growth inhibition of the OVCAR-5 human tumor cell line is measured as a screen for anti-cancer activity. Cells are grown in 96 well plates and exposed to the test compound for 48 hours. Compounds are tested at a single concentration, which is 10^-5 M for most compounds. The reported endpoint is percent growth (GI% or GIPRCNT), where numbers from 0 - 100% represent growth inhibition, and numbers from -100% - 0 represent cell death. For example, a value of 40 represents 60% growth inhibition. […]
About 83,000 compounds went through this panel and 20% of them were active in at least one assay; those are over-represented in the sample as a whole. Activity calls are given as the source filed them. How the source made its calls: active means growth percent below 10; inactive means the rest.

Which growth is listed for Cc1cc(C)cc(C(=O)Nc2cccc(-c3cn(-c4ccc(S(N)(=O)=O)cc4)nn3)c2)c1 ?
81.5% (inactive)

Would you mind doing Cc1ccc(C(=O)NN2C(=O)/C(=C/C=C/c3ccc([N+](=O)[O-])o3)SC2=S)cc1 as well?
-94.9% (active)

Would you mind doing CN(C)c1ccnc(NCCCSC(c2ccccc2)(c2ccccc2)c2ccccc2)c1 as well?
84.5% (inactive)

Would you mind doing CN(C)CCn1c2ccccc2c2nc3ccc([N+](=O)[O-])cc3nc21 as well?
-0.168% (active)

Would you mind doing COc1cc(C2CC(c3cc(OC)c(OC)c(OC)c3)=NN2C(C)=O)ccc1OCc1ccc(F)cc1 (stereo not drawn) as well?
57.8% (inactive)

Would you mind doing CCN(CC)c1ccnc(CNCCSC(c2ccccc2)(c2ccccc2)c2ccc(OC)cc2)c1 as well?
-11.9% (active)

Would you mind doing CCS(=O)(=O)N1CCCC(C(=O)Nc2nc3ccc(NC(=O)c4ccc(F)c(OC)c4F)cc3s2)C1 (stereo not drawn) as well?
101% (inactive)

Would you mind doing Cc1ccc(-n2c(-c3cc4ccccc4nc3Cl)noc2=O)cc1 as well?
98.1% (inactive)

Would you mind doing CCN1C(=O)/C(=N\N=C(/C)c2ccc3c(c2)Nc2ccccc2S3)c2cc(Cl)ccc21 as well?
83.7% (inactive)

Would you mind doing C=C1CCC2C3(C)COC(c4cccs4)OC3CCC2(C)C1CC(Sc1ccccc1)C1=CCOC1=O (stereo not drawn) as well?
102% (inactive)

Would you mind doing Cc1ccc(S(=O)(=O)c2nc(S(=O)(=O)c3ccc(C)cc3)c(Cl)s2)cc1 as well?
31.6% (inactive)

Would you mind doing Cc1ccc([C@H]2C(C(=O)c3ccc(Cl)cc3)C3(N[C@@H]2c2ccccc2)C(=O)Nc2ccc(Br)cc23)cc1 (stereo partly drawn) as well?
73.2% (inactive)

Would you mind doing COc1ccc(-c2nnc3ccc(N/N=C/c4ccc(O)cc4)nn23)cc1 as well?
88.9% (inactive)

Would you mind doing COc1cc(-c2nc3ccc(C)cc3[nH]2)ccc1OCc1nnc(-c2ccc(Br)cc2)o1 as well?
92.1% (inactive)

Would you mind doing Cn1cc(-c2cc(N)n3nc(-c4cn(C)c5ccccc45)cc3n2)c2cc(Br)ccc21 as well?
5.47% (active)

Would you mind doing CC1(C)CC[C@]2(C(=O)Nc3ccccc3)CC[C@]3(C)C(=CCC4[C@@]5(C)C[C@@H](O)[C@H](O)[C@@](C)(CO)C5CC[C@]43C)C2C1 (stereo partly drawn) as well?
86.2% (inactive)

Would you mind doing CCOC(=O)C1=C(N)N(c2ccccc2)C2=C(C(=O)CC(C)(C)C2)C1c1ccc(N2CCOCC2)cc1 (stereo not drawn) as well?
101% (inactive)

Would you mind doing CSc1ccccc1NC(=O)c1ccc2nn(/C(C#N)=C/c3ccccn3)nc2c1 as well?
-86.8% (active)
